Task for the reader: assign each of the following binders its reported pKi.
# tested_system: T1, BCL-XL (UniProt Q07817 1-209)
# T1 construct: Target of the Ki columns
# T1 sequence (Q07817 1-209): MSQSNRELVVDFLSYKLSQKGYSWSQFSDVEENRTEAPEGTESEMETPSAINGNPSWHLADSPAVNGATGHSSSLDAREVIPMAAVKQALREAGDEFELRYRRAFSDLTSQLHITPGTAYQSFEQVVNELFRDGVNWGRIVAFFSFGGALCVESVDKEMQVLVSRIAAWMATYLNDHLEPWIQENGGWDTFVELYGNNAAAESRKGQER
# test_name: Ki (Table 6); method not stated
# log scale: pKi equals minus log10 of the concentration in mol/L

Q: What does the record list as pKi for IWIAQALXAIGDAFNAYYA (N-terminal Ac; Cit at residue 8 (column 153); $r8 at residue 9 (column 154) and $ at residue 16 (column 161), crosslinked; C-terminal NH2) [Cross-linked peptide #5] ?
A: 6.96

Q: What does the record list as pKi for IWIAQALXAIGDQFNAYYA (not fully specified; N-terminal Ac; Cit at residue 8 (column 153); $r8 at residue 9 (column 154) and $ at residue 16 (column 161), crosslinked; C-terminal NH2) [Cross-linked peptide #6] ?
A: 7.54
